Assay: P. falciparum Dd2 growth inhibitors, dose response, SYBR Green, cherry-picked samples (AID 1159567)
Assay type: functional, cell-based
Calls of active or inactive are those of the source. Cut-off read from the data, not from the text of the source: actives have a measured AC50 and inactives only a lower limit.
Measure Name: AC50

The compound listed as "C/C=C/c1ccc([C@@H]2[C@@H](CO)N(CC3CCCC3)C23CN(S(=O)(=O)CC)C3)cc1" shows AC50 equal to 4.7 µM (active)

Lookup result for "COc1ccc(-c2ccc([C@H]3[C@@H](C#N)N(C(=O)NC(C)C)[C@H]3CO)cc2)cc1" ; measured AC50: 0.89 µM (active)

// "O=C(c1ccc2c(c1)OCO2)N1C[C@@H]2N[C@H](C1)[C@@H]2c1ccc(/C=C/c2ccccc2)cc1" : AC50 value = 4.03 µM (active)

response.value for "O=C(Cc1ccncc1)N1CC[C@@H]2[C@@H](CO)Nc3ccc(-c4cccc(F)c4)cc3[C@@H]21" (field: AC50) = 3.43 µM (active)

# AC50 of "C[C@@H]1CN([C@@H](C)CO)C(=O)c2c(c3ccccc3n2C)-c2ccccc2CO[C@H]1CN(C)Cc1cccc(C(F)(F)F)c1" = 3.05 µM (active)
